- studySystem: human DP (Homo sapiens, UniProt Q13258)
- Sequence (Q13258 whole entry): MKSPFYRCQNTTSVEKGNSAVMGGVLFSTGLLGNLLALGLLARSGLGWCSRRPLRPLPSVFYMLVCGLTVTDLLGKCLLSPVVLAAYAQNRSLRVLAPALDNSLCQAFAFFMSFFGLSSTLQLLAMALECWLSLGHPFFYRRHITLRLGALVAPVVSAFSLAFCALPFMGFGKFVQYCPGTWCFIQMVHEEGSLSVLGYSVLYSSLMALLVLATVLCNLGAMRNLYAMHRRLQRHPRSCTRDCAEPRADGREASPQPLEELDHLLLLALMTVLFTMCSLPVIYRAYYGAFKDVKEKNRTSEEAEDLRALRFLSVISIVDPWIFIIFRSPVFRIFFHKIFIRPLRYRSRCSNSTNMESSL
metricName: IC50

{"columns": ["inputSmiles", "metricName", "reading"],
 "data": [
  ["O=C(O)Cc1ccc(Oc2cc3c(cc2NS(=O)(=O)c2ccc(Cl)cc2)C(=O)NC3=O)c(Cl)c1", "IC50", "1 to 15 µM"]
]}

These data points were gathered from patent US7960567B2.
